Tested on: MCF-10A (normal breast) cells
Assay: MTT cytotoxicity bioassay against normal MCF-10A cells
Type: cell-based
Settings: Homo sapiens, MCF-10A, 48 h, read-out: IC50 ± SD, MCF-10A
pIC50: −log10 of the molar value.
Entries annotated with measured pIC50
REPORTED METRIC: pIC50

| MOLECULE | VALUE QUALIFIER | TEST RESULT |
| --- | --- | --- |
| O=C(c1ccc2ccccc2c1)c1cn(-c2ccccc2)nc1C1=Nn2c(nnc2SCc2ccccc2CSc2nnc3n2N=C(c2nn(-c4ccccc4)cc2C(=O)c2ccc4ccccc4c2)CS3)SC1 | = | 4.51 |
| C#Cc1cccc(Nc2ncnc3cc(OCCOC)c(OCCOC)cc23)c1 [Erlotinib, reference compound] | ≤ | 4.30 |
| O=C(c1ccc2ccccc2c1)c1cn(-c2ccccc2)nc1C(=O)CBr | = | 4.43 |
| O=C(c1ccc2ccccc2c1)c1cn(-c2ccccc2)nc1C1=Nn2c(SCCCSc3nnc4n3N=C(c3nn(-c5ccccc5)cc3C(=O)c3ccc5ccccc5c3)CS4)nnc2SC1 | = | 4.53 |
| O=C(c1ccc2ccccc2c1)c1cn(-c2ccccc2)nc1C1=Nn2c(SCCSc3nnc4n3N=C(c3nn(-c5ccccc5)cc3C(=O)c3ccc5ccccc5c3)CS4)nnc2SC1 | = | 4.41 |
| O=C(c1ccc2ccccc2c1)c1cn(-c2ccccc2)nc1C1=Nn2c(nnc2-c2ccccc2)SC1 | ≤ | 4.30 |
| O=C(c1ccc2ccccc2c1)c1cn(-c2ccccc2)nc1C1=Nn2c(S)nnc2SC1 | = | 4.33 |
| O=C(c1ccc2ccccc2c1)c1cn(-c2ccccc2)nc1C1=Nn2cnnc2SC1 | ≤ | 4.30 |
